Ratio CC50/IC50 listing for selected compounds.
# ASSAY DETAILS: Selectivity index, ratio of CC50 for MDCK cells to IC50 for Influenza A virus (A/Vietnam/1194/2004(H5N1))
# Assay type: functional
PROPERTY NAME: Ratio CC50/IC50

{"columns": ["COMPOUND", "PROPERTY NAME", "CENSORING QUALIFIER", "RECORDED MEASUREMENT"],
 "data": [
  ["COC(=O)[C@H](Cc1c[nH]c2ccccc12)N/C=C1\\C(=O)C(O)=C(C(C)C)c2cc(C)c(-c3c(C)cc4c(c3O)/C(=C/N[C@@H](Cc3c[nH]c5ccccc35)C(=O)OC)C(=O)C(O)=C4C(C)C)c(O)c21 (stereo in doubt; (+)-11b)", "Ratio CC50/IC50", "=", 22.68],
  ["Cc1cc2c(c(O)c1-c1c(C)cc3c(c1O)/C(=C/N[C@@H](C)C(=O)[O-])C(=O)C(O)=C3C(C)C)/C(=C/N[C@@H](C)C(=O)[O-])C(=O)C(O)=C2C(C)C.[Na+].[Na+] (stereo in doubt; (-)-5a)", "Ratio CC50/IC50", ">", 44.24],
  ["Cc1cc2c(c(O)c1-c1c(C)cc3c(c1O)/C(=C/N[C@@H](Cc1c[nH]c4ccccc14)C(=O)[O-])C(=O)C(O)=C3C(C)C)/C(=C/N[C@@H](Cc1c[nH]c3ccccc13)C(=O)[O-])C(=O)C(O)=C2C(C)C.[Na+].[Na+] (stereo in doubt; (-)-7a)", "Ratio CC50/IC50", ">", 67.26],
  ["Cc1cc2c(c(O)c1-c1c(C)cc3c(c1O)/C(=C/NC(C)(C)C(=O)[O-])C(=O)C(O)=C3C(C)C)/C(=C/NC(C)(C)C(=O)[O-])C(=O)C(O)=C2C(C)C.[Na+].[Na+] (stereo in doubt; (-)-9a)", "Ratio CC50/IC50", "=", 31.96],
  ["COC(=O)[C@H](C)N/C=C1\\C(=O)C(O)=C(C(C)C)c2cc(C)c(-c3c(C)cc4c(c3O)/C(=C/N[C@@H](C)C(=O)OC)C(=O)C(O)=C4C(C)C)c(O)c21 (stereo in doubt; (+)-10b)", "Ratio CC50/IC50", "=", 50.94],
  ["CC[C@H](C)[C@H](N/C=C1\\C(=O)C(O)=C(C(C)C)c2cc(C)c(-c3c(C)cc4c(c3O)/C(=C/N[C@H](C(=O)[O-])[C@@H](C)CC)C(=O)C(O)=C4C(C)C)c(O)c21)C(=O)[O-].[Na+].[Na+] (stereo in doubt; (-)-8a)", "Ratio CC50/IC50", ">", 58.68]
]}

---

# ASSAY DETAILS: Selectivity index, ratio of cytotoxicity against MDCK cells to antiviral activity against H5N1 subtype
# Type: toxicity, cell-based
# ASSAY SETUP: dog, read-out: Selectivity Index
PROPERTY NAME: selectivity ratio

{"columns": ["CHEMICAL SMILES", "RECORDED MEASUREMENT"],
 "data": [
  ["Cc1cc2c(C(C)C)c(O)c(O)c(C(=O)O)c2c(O)c1-c1c(C)cc2c(C(C)C)c(O)c(O)c(C(=O)O)c2c1O", 10.5],
  ["CC(=O)Oc1c(OC(C)=O)c(C(=O)O)c2c(OC(C)=O)c(-c3c(C)cc4c(C(C)C)c(OC(C)=O)c(OC(C)=O)c(C(=O)O)c4c3OC(C)=O)c(C)cc2c1C(C)C", "> 8.7"],
  ["COc1c(OC)c(C(=O)O)c2c(OC)c(-c3c(C)cc4c(C(C)C)c(OC)c(OC)c(C(=O)O)c4c3OC)c(C)cc2c1C(C)C", "> 0.33"],
  ["COc1c(OC)c(C=O)c2c(OC)c(-c3c(C)cc4c(C(C)C)c(OC)c(OC)c(C=O)c4c3OC)c(C)cc2c1C(C)C", "> 0.54"],
  ["NC12CC3CC(CC(C3)C1)C2", "> 57.4"],
  ["Cc1cc2c(C(C)C)c(O)c(O)c(C=O)c2c(O)c1-c1c(C)cc2c(C(C)C)c(O)c(O)c(C=O)c2c1O", 1.65]
]}

---

pIC50 listing for selected compounds.
# Test system: Influenza A virus
# ASSAY DETAILS: Antiviral activity against Influenza A virus (A/Vietnam/1194/2004(H5N1)) infected in MDCK cells by plaque reduction assay
# Format: functional, organism-based
# ASSAY SETUP: Influenza A virus, MDCK; read-out: IC50
pIC50: −log10 of the molar value.
PROPERTY NAME: pIC50

{"columns": ["COMPOUND", "TARGET DESC", "PROPERTY NAME", "RECORDED MEASUREMENT"],
 "data": [
  ["Cc1cc2c(c(O)c1-c1c(C)cc3c(c1O)/C(=C/NC(C)(C)C(=O)[O-])C(=O)C(O)=C3C(C)C)/C(=C/NC(C)(C)C(=O)[O-])C(=O)C(O)=C2C(C)C.[Na+].[Na+] (stereo in doubt; (-)-9a)", "Influenza A virus", "pIC50", 5.80],
  ["CC(=O)Oc1c(OC(C)=O)c(C(=O)O)c2c(OC(C)=O)c(-c3c(C)cc4c(C(C)C)c(OC(C)=O)c(OC(C)=O)c(C(=O)O)c4c3OC(C)=O)c(C)cc2c1C(C)C", "Influenza A virus", "pIC50", 5.46],
  ["Cc1cc2c(C(C)C)c(O)c(O)c(C(=O)O)c2c(O)c1-c1c(C)cc2c(C(C)C)c(O)c(O)c(C(=O)O)c2c1O", "Influenza A virus", "pIC50", 5.42],
  ["NC12CC3CC(CC(C3)C1)C2 [AMANTADINE]", "Influenza A virus", "pIC50", 5.42]
]}

---

# ASSAY DETAILS: Selectivity index, ratio of CC50 for MDCK cells to IC50 for Influenza A virus (A/Vietnam/1194/2004(H5N1))
# Format: functional
Ratio CC50/IC50 listing for selected compounds.
PROPERTY NAME: Ratio CC50/IC50

{"columns": ["COMPOUND", "CENSORING QUALIFIER", "RECORDED MEASUREMENT"],
 "data": [
  ["Cc1cc2c(c(O)c1-c1c(C)cc3c(c1O)/C(=C/N[C@H](C(=O)[O-])C(C)C)C(=O)C(O)=C3C(C)C)/C(=C/N[C@H](C(=O)[O-])C(C)C)C(=O)C(O)=C2C(C)C.[Na+].[Na+] (stereo in doubt; (-)-6a)", ">", 16.66],
  ["CC[C@H](C)[C@H](N/C=C1\\C(=O)C(O)=C(C(C)C)c2cc(C)c(-c3c(C)cc4c(c3O)/C(=C/N[C@H](C(=O)[O-])[C@@H](C)CC)C(=O)C(O)=C4C(C)C)c(O)c21)C(=O)[O-].[Na+].[Na+] (stereo in doubt; (+)-8b)", "=", 132.03],
  ["Cc1cc2c(c(O)c1-c1c(C)cc3c(c1O)/C(=C/N[C@H](C(=O)[O-])C(C)C)C(=O)C(O)=C3C(C)C)/C(=C/N[C@H](C(=O)[O-])C(C)C)C(=O)C(O)=C2C(C)C.[Na+].[Na+] (stereo in doubt; (+)-6b)", "=", 34.5],
  ["COC(=O)[C@H](Cc1c[nH]c2ccccc12)N/C=C1\\C(=O)C(O)=C(C(C)C)c2cc(C)c(-c3c(C)cc4c(c3O)/C(=C/N[C@@H](Cc3c[nH]c5ccccc35)C(=O)OC)C(=O)C(O)=C4C(C)C)c(O)c21 (stereo in doubt; (-)-11a)", ">", 10.77],
  ["NC12CC3CC(CC(C3)C1)C2 [AMANTADINE]", ">", 57.39],
  ["COC(=O)[C@H](C)N/C=C1\\C(=O)C(O)=C(C(C)C)c2cc(C)c(-c3c(C)cc4c(c3O)/C(=C/N[C@@H](C)C(=O)OC)C(=O)C(O)=C4C(C)C)c(O)c21 (stereo in doubt; (-)-10a)", ">", 25.2],
  ["Cc1cc2c(c(O)c1-c1c(C)cc3c(c1O)/C(=C/NC(C)(C)C(=O)[O-])C(=O)C(O)=C3C(C)C)/C(=C/NC(C)(C)C(=O)[O-])C(=O)C(O)=C2C(C)C.[Na+].[Na+] (stereo in doubt; (+)-9b)", "=", 51.11],
  ["Cc1cc2c(c(O)c1-c1c(C)cc3c(c1O)/C(=C/N[C@@H](C)C(=O)[O-])C(=O)C(O)=C3C(C)C)/C(=C/N[C@@H](C)C(=O)[O-])C(=O)C(O)=C2C(C)C.[Na+].[Na+] (stereo in doubt; (+)-5b)", "=", 100.72],
  ["Cc1cc2c(c(O)c1-c1c(C)cc3c(c1O)/C(=C/N[C@@H](Cc1c[nH]c4ccccc14)C(=O)[O-])C(=O)C(O)=C3C(C)C)/C(=C/N[C@@H](Cc1c[nH]c3ccccc13)C(=O)[O-])C(=O)C(O)=C2C(C)C.[Na+].[Na+] (stereo in doubt; (+)-7b)", "=", 142.6]
]}

These entries and their values trace back to ChEMBL document CHEMBL2375337.
